# IC50 listing for each entry below
Assay: Inhibition of Saccharomyces cerevisiae alpha-glucosidase using pNPG as substrate assessed as release of p-nitrophenol preincubated for 18 mins followed by substrate addition and measured after 30 mins by colorimetric method
Answer with a number only, understood to be in µM.

These solved cases illustrate the format of a correct answer.
[[record]]
molecule = "C=C1[C@@H]2CC[C@H]3[C@]4(C)C[C@H](O[C@@H]5O[C@H](CO)[C@@H](O)[C@H](O[C@@H]6OC[C@H](OC(C)=O)[C@H](O)[C@H]6OC(C)=O)[C@H]5OC(=O)CC(C)C)C[C@@H](C(=O)O)[C@H]4CC[C@]3(C2)[C@H]1O"
value_kind = "IC50"
meas_value = 373

[[record]]
molecule = "C[C@H]1O[C@H](O[C@H]2[C@H](O)[C@@H](O)[C@@H](O[C@H]3[C@H](O)[C@@H](O)C(O)O[C@@H]3CO)O[C@@H]2CO)[C@H](O)[C@@H](O)[C@@H]1N[C@H]1C=C(CO)[C@@H](O)[C@H](O)[C@H]1O (some centres undefined)"
value_kind = "IC50"
meas_value = 388

[[record]]
molecule = "C=C1[C@@H]2CC[C@H]3[C@]4(C)C[C@H](O[C@@H]5O[C@H](CO)[C@@H](OC(C)=O)[C@H](O[C@@H]6OC[C@H](OC(C)=O)[C@H](O)[C@H]6O)[C@H]5OC(=O)CC(C)C)C[C@@H](C(=O)O)[C@H]4CC[C@]3(C2)[C@H]1O"
value_kind = "IC50"
meas_value = 537


# input for lookup
Request: GET /values?readout=IC50&item= "C=C1[C@@H]2CC[C@H]3[C@]4(C)C[C@H](O[C@@H]5O[C@H](CO)[C@@H](O)[C@H](OC(C)=O)[C@H]5OC(=O)CC(C)C)CC(C(=O)O)(C(=O)O)[C@H]4CC[C@]3(C2)[C@H]1O"
Response: 32.8
